Provide the reported soluble fraction (log2) of each item.
# PROTOCOL: soluble fraction after stress (log2 fold change); higher = more stays soluble; pooled small domains, quantitative proteomics
# SETTINGS: stress: pH 4
Numbers only.

Below, 3 sequences whose answers are already recorded.
                                 seq_string           endpoint_label  measured_value
0  HMKDNPNETFERIAGKITRTLRSGPVRIQQLDLLFSESAGKVVDVLRAMAENGEVLIKDDTIQLNGNN  soluble fraction (log2)          -0.261
1  HMSFGKKLRSLRQEKKLSQVELSKKLNVTSQALSQYELGKRIPDAEMIIRIADFFDVSVDYLLDRT  soluble fraction (log2)          -0.137
2  HMDLPREKRIEIGLTYIYGIGLKTSQKILAATGIDPNTRVKDLDETTVSKLREYIDHNYRVEGELRS  soluble fraction (log2)          -0.217

Hi! Can you tell me soluble fraction (log2) for each of these sequences?
1. HMPVNEEFKRLIDKIKYEFSINQAQISERLGVKSTYLSDMINGRVPYNESMQKKIHEVFHIG
2. HMAHLSPNDAARLVGVSRPLLNQILDEGRITFFETAGGHRKIKLAAVLAYIKERDEVAAQLAAART
3. HMNIEIIEVQEESTPSEISKIISTESTKIIEDLLNLGVMASLETPLKNQDIEKLLEGYGYIVDIKP
4. HMISLPSYIREEATEVYNRLHDLGLEYTSLDVNDDSIPKGYVVRTVPEAGASVPAGQVVTVYVSLG

1. 0.114
2. -0.514
3. -1.84
4. -0.231

Hi! Can you tell me soluble fraction (log2) for each of these sequences?
1. HMSSVEVWINGKSSGLTSDNRAQILQQLPAESIERIEVIDNPSAKFSAEGSAGIINIVLKKD
2. HMQADEENPKYPVITDGVIQLEVLESIDKTEEWLVERLAKDGYNNVSEIFIAEYENGNLSIVT
3. HMSDAGAIEPTIKEILASNPKAVEEYLAGNIKNINALIGQSMKALHGKADPQTVRNLLAKLLDEM
4. HMKWGDTPTVEVPNLIGMKKKDLQTQLVDLKLDISGDGEKVIKQSPEAGAKVKEGSKIRIYFG
5. HMEEPEFEPYVVRLTAIALNVRTGPGTQYPVAMVIRGGGAFTIVAEENGFGLLKSGAGWIMLQHTERV
6. HMNNGTDGLTTRLRRAILAGQYTFKERLPSERQLAEHFNTSRGTVRKVLQRLTTMNLVEQRAGSGTYVRYG

-0.177
-0.742
-0.487
-0.0575
-0.427
0.22

Hi! Can you tell me soluble fraction (log2) for each of these sequences?
1. HMLAQDVIVKQDGGTILSKVLEIGTQEIAYKKWNSQDGPVYKIAKDQVLSVNYQNGEVDRFA
2. HMPGRPSRISDAVKDQIDHDLRKNPRDLGYSQNLWDGKLLSHHLKERYQITLGIRQAQRLFHQLGFRQR

1. -0.233
2. -0.0409

Hi! Can you tell me soluble fraction (log2) for each of these sequences?
1. HMAMKFQDIVRQKRKELGLTQEQAARRLGVSPAAVSKWESGQSLPDTPLFAPLARLLHTDLNTLLSFE
2. HMTVTTDITQYFLQENGLLNGPNARQLRQKIGETLNIGYTNGKQLLKRAQQFGLTRDQILTALKK
3. HMFLPGETFDVKIVKIGEGENQGVGYLDDGTMIVIENGRDHLNELARVIVTRVLQNSAGQMIFSDYEE

[-0.34, 0.278, -1.76]

====

# PROTOCOL: soluble fraction after stress (log2 fold change); higher = more stays soluble; pooled small domains, quantitative proteomics
# SETTINGS: stress: pH 4
ENDPOINT_LABEL: soluble fraction (log2)
Numbers only.

Below, 5 sequences whose answers are already recorded.
                                 seq_string  measured_value
0  HMIPTTELAERLGTTKVANMIMLGALIKASGIISFDDMIKNLGELLGEGKAKLIKLNKEALEVGFN          0.0451
1  HMRSMEKRLTAKVKRVQEGVQAKSQAGEQPFEVVKLMQRFPKLMQFGKHAEAETVLDKALELLGEE          -0.373
2  HMREVTVGSAVRLKKGAKTYSGGSLASFVYERNHQVTQLSGDRAVISFKGTVVAAVHKDDLIL         -0.0626
3  HMDAIAYLGSRLKEIRLKSGLSLREIARQLDVSPSFISQIENGKSQPSVATLYAFAKLLNVPVDVLFQPS          -0.455
4  HMSSPEAAEVQRLLKDGQHVQALKIIDESLARNPKDPQMRFRRGVALSMLDRKNEALAVFQKLVED         -0.0849

Hi! Can you tell me soluble fraction (log2) for each of these sequences?
1. HMRDYKTALQEWVQRTPGQPIAYRLVDELGPDHARVFVMEVTVGGQSAGQGRGRTKKEAEQLAARAALEKL
2. HMAVQEDAGLAREDLPPEVQGLLQEREAARAAKDWGKSDALRRQLQDLGYAIKDTAQGMEIKRT
3. HMLPVLEIGTMIRIIRQPHFGTIARVVALPEELTKVESETLVRILDAEFDDGTRVRIPRANVEVIE

[-0.0915, 0.101, -1.37]

====

# PROTOCOL: soluble fraction after stress (log2 fold change); higher = more stays soluble; pooled small domains, quantitative proteomics
# SETTINGS: stress: pH 4
Output Satisfied for soluble fraction (log2) not less than -0.4; output Not satisfied otherwise.

>>> df
                                 seq_string  classification
0  HMDVNHVIIDHKGNSIQAIIDSIDLDNVYYQSKIKKESEVIDIDKVYFIFNDFDRVYHYDWSYYENL   Not satisfied

API: above_or_equal(metric=soluble fraction (log2), cutoff=-0.4) for item HMTTETGTVKWFNEGKGFGFIAPDGGGKDLFAHFKEIQGSGFKTLTENQRVQFEVTQGQKGPQASNIRTL
Satisfied

API: above_or_equal(metric=soluble fraction (log2), cutoff=-0.4) for item HMGDSFLDHKKELQSMILSRLDLSREVPDEEIKDIIDELIIAQSKKLFLSLNDRGKLRQELFYSIRK
Not satisfied

API: above_or_equal(metric=soluble fraction (log2), cutoff=-0.4) for item HMDKEQVTFIFRDIDIALRSLDYPIKDIKNTLNIIKSEFSNSKSTELNEQKINFENILKEAISILENND
Not satisfied

====

Provide the reported soluble fraction (log2) of each item.
# PROTOCOL: soluble fraction after stress (log2 fold change); higher = more stays soluble; pooled small domains, quantitative proteomics
# SETTINGS: stress: pH 4
Give bare numbers.

Below, 10 sequences whose answers are already recorded.
>>> df
                                 seq_string  measured_value
0  HMTGYVMIRVDGLSLEKFLNMAAEAGVRVSDVRRASYTVLYAVVSPRDLKKLQSVAPEKYTVTVR           -0.23
1  HMRKDYTVLYSAVNAEEATEIVSKLQESGVAYQYKDNGDVLVDKKQVDKVRAQLAQEGYPKS          -0.204
2  HMKLPIEKESYRIIWDLEEESFRIRLKISENSPQEEKNILINQAIEDIENITGEPIDKSPYYVLYE           -1.04
3  HMITKENYLEKIKEIKVNEFPASMRELYDFFNEATRNGTDWSAYEEGNVKYVVDAYLERLNLLYKSN          -0.892
4  HMENSYSVEDLALKAAISVDTIRYYQGLGLISPPQKNGRRAIYGNDHISRLEEIKKLAFEGFSLRQISLL            0.22
5  HMSGSPREQAESEYRKAIAAVNQGRVSEATESLRAALRLDAFQVAARQLLVKLLLEAKNQDEAIQVLR          -0.489
6  HMDVEMLIDKYQLNDSEAEVLRFMKKNRQSLKTIGIRDVAKATYVSTATIINMAKKIGYSGYSELVFALGN          -0.319
7  HMREPDPELTASIKSMAESNDQSERLVALAQLSEQRAVDPEVADQILLIALLDEDPIIRGQAVYA          0.0401
8  HMPELTERELEVLLLTARGLPSSEAARLLFITRRTVAAHLTSIYGKLGARNKTEAVLAALKRGIIMLDQIG           -1.46
9  HMTKIEYTEQEFNDFIQAYKNNRKMFPEDYIVKTQVVFINKGFSKSQADMIIAQIETRLRLQGE          -0.378

Hi! Can you tell me soluble fraction (log2) for each of these sequences?
1. HMKSILDDVVGLGPVRKKALLSAAGGFRKLRDMDVDEVIGLGAVPEEVAREVVTVLAQYNGERDRVEGL
2. HMELPSDEHLDDISHLARIGHKKGLQEKIIQLEQQGLASAEFIQQLKTLTNNFQFEKIIQWVDSEL
3. HMGMVKLNEEYLEKVKKHRKELHITQLQISKKLGWSLSRYQRFESGFYKEIEDDAPKKIKEEFGIDYSLL
4. HMGAGLDDLVRKSLHNAGLKADDNVVSWISGNLGSDRMVSRMELEKLVLFVAGQSEITLEDAQAVIGD
5. HMGIPIEAYHESLHRHYIDLWELLDTGKETLIDAEGNEVDKIHLLNAIRFNVNGMLHELLKE
6. HMKIVPEPGTVLIREYQEERHEVTVTLDGAFDYKGTLYSSLSEIARLITGTRWSGPVFFGLRS

1. 0.104
2. -0.848
3. -0.231
4. -0.374
5. -1.48
6. -0.353
